assay: Expected human pharmacokinetic parameters at 200 mg tramadol per day (model matching rat AUCinf ratio); format: in vivo; conditions: 200 mg tramadol per day for humans
propertyLabel: expected Cmin (ng/mL)
The answer is to be given in ng/mL; state only the numeric part.

In plain terms, COc1cccc(C2(O)CCCCC2CN(C)C)c1 (single isomer, unassigned; (-)) [(−)-trans-T] has a documented expected Cmin of 86

In plain terms, CN(C)CC1CCCCC1(O)c1cccc(O)c1 (single isomer, unassigned; (+)) [(+) M1, trans-O-demethyltramadol] has a documented expected Cmin of 21

Continuing:
In plain terms, COc1cccc([C@@]2(O)CCCC[C@@H]2CN(C)C)c1 [(+)-trans-T] has a documented expected Cmin of 111

In plain terms, CN(C)CC1CCCCC1(O)c1cccc(O)c1 (single isomer, unassigned; (-)) [(−) M1, trans-O-demethyltramadol] has a documented expected Cmin of 22

* * *

assay: Expected human pharmacokinetic parameters at 200 mg tramadol per day (model matching rat AUCinf ratio); format: in vivo; settings: 200 mg tramadol per day for humans
propertyLabel: expected Cmax (ng/mL)
The answer is to be given in ng/mL; state only the numeric part.

In plain terms, COc1cccc(C2(O)CCCCC2CN(C)C)c1 (single isomer, unassigned; (-)) [(−)-trans-T] has a documented expected Cmax of 157

In plain terms, CN(C)CC1CCCCC1(O)c1cccc(O)c1 (single isomer, unassigned; (+)) [(+) M1, trans-O-demethyltramadol] has a documented expected Cmax of 36

In plain terms, COc1cccc([C@@]2(O)CCCC[C@@H]2CN(C)C)c1 [(+)-trans-T] has a documented expected Cmax of 190

Continuing:
In plain terms, CN(C)CC1CCCCC1(O)c1cccc(O)c1 (single isomer, unassigned; (-)) [(−) M1, trans-O-demethyltramadol] has a documented expected Cmax of 43

* * *

test: Expected human pharmacokinetic parameters at 200 mg tramadol per day (model matching rat AUCinf ratio); type: in vivo; settings: 200 mg tramadol per day for humans; gabapentin at 6.77 fold AUC ratio (daily dose 505 mg gabapentin equivalent)
Tag: Met if measured expected Cavg is not below 100 ng/mL, Not met if it is.

-- ask Identify whether the reported expected Cavg of the following compound is 100 ng/mL or greater: COc1cccc(C2(O)CCCCC2CN(C)C)c1 (single isomer, unassigned; (-)) [(−)-trans-T]
-- reply Met

-- ask Identify whether the reported expected Cavg of the following compound is 100 ng/mL or greater: CN(C)CC1CCCCC1(O)c1cccc(O)c1 (single isomer, unassigned; (-)) [(−) M1, trans-O-demethyltramadol]
-- reply Not met

-- ask Identify whether the reported expected Cavg of the following compound is 100 ng/mL or greater: NCC1(CC(=O)O)CCCCC1 [Gabapentin, gabapentin]
-- reply Met

-- ask Identify whether the reported expected Cavg of the following compound is 100 ng/mL or greater: COc1cccc([C@@]2(O)CCCC[C@@H]2CN(C)C)c1 [(+)-trans-T]
-- reply Met

Turning now to a further record.
-- ask Identify whether the reported expected Cavg of the following compound is 100 ng/mL or greater: CN(C)CC1CCCCC1(O)c1cccc(O)c1 (single isomer, unassigned; (+)) [(+) M1, trans-O-demethyltramadol]
-- reply Not met
